test protocol: in vivo
Parameters: species or system NSG mice
test settings: NSG, mouse, iv, 41.83 uCi, total radioactivity, kidney uptake
outcome measure: tissue uptake at 1 h (%ID/g)
The response must be a number in %ID/g with no trailing unit.

Qu. Could you share which tissue uptake at 1 h value was measured for CC[C@H](C)[C@H](NC(=O)CNC(=O)CNC(=O)[C@H](CCC(=O)O)NC(=O)Cc1ccc(CC2CN(CC(=O)O)CCN(CC(=O)O)CCN2CC(=O)O)cc1)C(=O)N[C@H]1CCc2cccc3c2N(C1=O)[C@H](C(=O)N[C@H]1CC(=O)OC1O)C3 (stereo partly shown) [^68Ga-NOTA-CYT-200, metal not drawn] ?
Ans. 1.47
